The measurements presented in this section are drawn from the domain aggregation screens of Martell et al. (2025).

TEST NAME: soluble fraction after stress (log2 fold change); higher = more stays soluble; pooled small domains, quantitative proteomics;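 note: 20 min heating vs room temperature control held 20 min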
ASSAY CONTEXT: stress: 75 degC
Classify by measured soluble fraction (log2): 1 if it is equal to or exceeds -0.5, 0 if it is smaller.

Problem: Does "HMEEFIEHTVEKGEFLSAIIVAYNQHLKSKGFKSITTRDILNANPKLKPELIQVGQKIKIPRRKK" have a reported soluble fraction (log2) of at least -0.5?
Solution: 0

Problem: Form field: soluble fraction (log2) at least -0.5? Entry: "HMVELRDGSLPLARGSVGDLVAEVQRKLGVAADGIFGPQTERAVRAFQARAGLASDGIVGPLTWSALFGA"
Solution: 0

Problem: Textbook exercise: given the entry "HMKSLHSEVTDRIRQLIVESHLQPGQRVPELEISRDLGVSRTPIREALKVLAAEGLVELLPLRGAMVK" , state whether its soluble fraction (log2) is greater than or equal to -0.5.
Solution: 1

Problem: Is soluble fraction (log2) at least -0.5? Consider "HMRYNPETTAGRRGLIIKMLDEYGQVNVNELSRYFNVSEVTVRNDLAYLERKNLLIRARGGAIKTE"
Solution: 0

Problem: Quick check, soluble fraction (log2) >= -0.5? "HMQNDDLTKLDGIGPYIEQRLNDIGIYNYEQLSKLNTEDIQKITELIDFFPGRIERDNWVSQAQLLKI"
Solution: 0

Problem: API: above_or_equal(metric=soluble fraction (log2), cutoff=-0.5) for item "HMTVEMYIGKTANVLETVTENNGRIAIFGEEWQAKSLNGETIEKGAQAKIVKNDSIIMYVVPI"
Solution: 1

Problem: # check: soluble fraction (log2) of "HMRGLIEPLSQRELEVLMLMARGQSNAHIADQLNISENTIKWHGRNIFGKLGVSNRTEAVITSQEMGMLAT" is greater than or equal to -0.5
Solution: 0

Problem: Decide: is the reported value of soluble fraction (log2) for "HMQQEAVNLVQSRGQQAIEPVHIMQGVMKVGENVTNFIFQKLGMNGQQVALVVDKQIDSLPKVSGGEPYL" equal to or greater than -0.5?
Solution: 1

Problem: hey, is soluble fraction (log2) for this one >= -0.5? "HMNDRLAGMEGQRGEAATNFDQGEGKVKVGDTVWLAKQSDSTVIVEGDQIVVTGSENGLLKVRL"
Solution: 1

====

TEST NAME: soluble fraction after stress (log2 fold change); higher = more stays soluble; pooled small domains, quantitative proteomics
ASSAY CONTEXT: stress: 75 degC
What soluble fraction (log2) was measured for each of the following?
Write no unit; give the number alone.

Reported soluble fraction (log2) for "HMGGNVYAYRLTASVKSGEQIPANKIEKVKMLSSDLPTNYVPDTVNVTAYKSKLDLQAGTILSTSLLYEN" was -0.591

Briefly, soluble fraction (log2) measured for "HMKLNEQSMQVIDRIVDRHRGRPGPVKLMLHDVQKELGYIPFEAMEKIAAASGVSADEVYGVVTFYTQFTT" : -0.919

For this sequence ( "HMIDIGSKIKKLRSKKSIEIGKKYTGAMLANELGISRSYLGDIESGRTVPNEIILGKIADIFDVDIYELIG" ), measured soluble fraction (log2) is -1.06

Per the records, this sequence ( "HMHSILDDIEGIGPARRKALMRHYMNLDAIKSATVEELAAVPSMNEKSAKAVHNFFHQQKKD" ) has soluble fraction (log2) equal to 0.0285

Entry under test: "HMRASVTYVVQVNGKLRGKLEVAPDIDPEELKKLALEVENVKHSLQGWTVKKVIVIPGKMVSIAAGK" . Its soluble fraction (log2) was -1.78

Recorded result, "HMNKWMQLASEEDKKLFNEAPKEIQDSITESAKFFDIRTKADVDTFWANTGLRQMKQQAMLNESFVNEY" , soluble fraction (log2): -0.0697

Noted for "HMQPQIDFEIDVEVRASSLRIVAAPNSDVLVATVGRGEHVVQLTYPKDGWVMIRTADDRVGFVPESLLL" : its soluble fraction (log2) reads -2

Data point: "HMPKETFLNLDEEKRQAIINVLLKNFSEQHISQVKVSAIVSGIGMSRGAFYKYFEDLEDAYRFTISYFSA" ; soluble fraction (log2) = 0.147

According to the records, this sequence "HMQDLTAQQQAILSFLKEHPKATRKEISENIPNITEDNIRYNLSQLQELGFVKSMGDSFIRIAI" displays soluble fraction (log2) of 0.534

Record summary for "HMAIRLIKASREFNVGISTIVEFLEKKGHAIDSDPNSKIPDELYQLIEKEFQTEGSVKKAAKQI" : reported soluble fraction (log2) = -1.81

Summary for this sequence, "HMQETMTNDEVISLTKAGLSSSIIIGKIRSSATNFDLSTDSLIKLKQAGVSDETVAAMLEAKS" : soluble fraction (log2) is 0.0249

Item: "HMVVDEQRIQTLVSAAEQNSSDPVPRVTLGNLYFDAEQFEEAVKWYEQALALDPRNVNVSTDLGVGYYY" | soluble fraction (log2): 0.113

sequence "HMKLASIGDNIHTLRKNKGLTQSQLAGKLGVNVDTISNYEKGVSTPDFDIVEKLVNIFNVDAHSLLFK" , soluble fraction (log2) observed: -0.287
